# System: colon carcinoma (Colo 205)
# ASSAY_DETAILS: Methylene Blue Growth Inhibition Assay (Assay 2), Colo205
# Assay type: cell-based
# MEASUREMENT_CONDITIONS: Homo sapiens, Colorectal cancer, B-Raf V599E, Ras wt
MEASURED_METRIC: pIC50
Answers are plain numbers, as −log10 of the molar value.

Asked: I have this molecule here, CN(C)CCOc1ccc(-c2cc(-c3ccc4c(c3)CCC4=NO)c(-c3ccncc3)o2)cc1 [Example 4] , and I need its recorded pIC50.
Given back: 6.96

====

# System: Human diploid foreskin fibroblasts (HFF)
# ASSAY_DETAILS: XTT 72 hr Growth Inhibition (Assay 3), HFF
# Format: cell-based
# MEASUREMENT_CONDITIONS: Fibroblast, normal, B-Raf wt, Ras wt
MEASURED_METRIC: IC50 (µM)
Give bare numbers, in µM.

Asked: Notebook entry, Human diploid foreskin fibroblasts (HFF) assay: IC50 of `CN(C)CCOc1ccc(-c2cc(-c3ccc4c(c3)CCC4=NO)c(-c3ccncc3)o2)cc1` = ?
Given back: 7.1
